// provenance: the supplement of paper PMC13380429

# Test system: U2OS
# assay name: cell viability relative to DMSO; higher = less toxic
# experimental conditions: 72 h; 10000 nM
Returns: string. Value is Satisfied if measured cell viability is below 90%, and Not satisfied if it is greater than or equal to it.

input: In plain terms, does CC[C@@H](CO)NC(=O)[C@@H]1C=C2c3cccc4[nH]cc(c34)C[C@H]2N(C)C1 come in under 90% for cell viability?
output: Not satisfied

input: # strict comparison: is reported cell viability < 90%? input = C[C@]12CC[C@@H]3c4ccc(O)cc4CC[C@H]3[C@@H]1C[C@@H](O)[C@@H]2O
output: Not satisfied

input: Threshold test, cell viability < 90%: Oc1cccc(-c2c3nc(c(-c4cccc(O)c4)c4ccc([nH]4)c(-c4cccc(O)c4)c4nc(c(-c5cccc(O)c5)c5ccc2[nH]5)CC4)C=C3)c1
output: Satisfied

input: Record Cc1[nH]c2ccccc2c1CCNCc1ccc(/C=C/C(=O)NO)cc1 : is its cell viability strictly below 90%?
output: Satisfied

input: is_below(cell viability, 90%) for C=CC(=O)Nc1cccc(Oc2nc(Nc3ccc(N4CCN(C)CC4)cc3OC)ncc2Cl)c1 ?
output: Not satisfied

input: State whether 90% exceeds cell viability recorded for CC(=O)O[C@H]1C[C@@H]2CC[C@@H]3[C@H](CC[C@@]4(C)[C@H]3C[C@H](N3CC[N+](C)(C)CC3)[C@@H]4OC(C)=O)[C@@]2(C)C[C@@H]1N1CC[N+](C)(C)CC1 .
output: Not satisfied
